Test system: Human airway smooth muscle (HASM) cells
Assay: Thrombin-induced proliferation of human airway smooth muscle (HASM) cells, cell number after 48 h
Format: cell-based
Settings: two site model, second phase (inhibition up to 100%); thrombin-induced proliferation
Output label 1 for HASM- Thr pIC75 not less than 5; output label 0 otherwise.

{"compound": "COc1cc2c(cc1O)/C(=N/OCc1cc(F)cc(F)c1)C[C@@H]1[C@@H]2CC[C@]2(C)/C(=N/O)CC[C@@H]12 [CP-DM-4-36]", "measured.target": "Human airway smooth muscle (HASM) cells", "label": "label 1"}
{"compound": "COc1cc2c(cc1O)/C(=N/OCc1ccc(C#N)cc1)C[C@@H]1[C@@H]2CC[C@]2(C)/C(=N/O)CC[C@@H]12 [CP-DM-4-38]", "measured.target": "Human airway smooth muscle (HASM) cells", "label": "label 0"}
{"compound": "COc1cccc(CO/N=C2\\C[C@@H]3[C@H](CC[C@]4(C)[C@@H](O)CC[C@@H]34)c3cc(OC)c(O)cc32)c1 [CP-DM-4-62]", "measured.target": "Human airway smooth muscle (HASM) cells", "label": "label 1"}
{"compound": "COc1cc2c(cc1O)C(=NOCc1ccc([N+](=O)[O-])cc1)C[C@@H]1[C@@H]2CC[C@]2(C)C(=NO)CC[C@@H]12 [CP-DM-3-91]", "measured.target": "Human airway smooth muscle (HASM) cells", "label": "label 1"}
{"compound": "COc1ccc(CON=C2CCC3C4CCc5cc(O)c(OC)cc5C4CCC23C)cc1 (stereo not drawn) [CP-DM-4-34]", "measured.target": "Human airway smooth muscle (HASM) cells", "label": "label 0"}
{"compound": "COc1cc2c(cc1O)/C(=N/OCc1ccncc1)C[C@@H]1[C@@H]2CC[C@]2(C)[C@@H](O)CC[C@@H]12 [CP-DM-4-16]", "measured.target": "Human airway smooth muscle (HASM) cells", "label": "label 1"}
{"compound": "COc1cc2c(cc1O)/C(=N/OCc1cc(F)cc(F)c1)C[C@@H]1[C@@H]2CC[C@]2(C)[C@@H](O)CC[C@@H]12 [CP-DM-4-35]", "measured.target": "Human airway smooth muscle (HASM) cells", "label": "label 1"}
{"compound": "COc1cc2c(cc1O)/C(=N/OCc1cccc([N+](=O)[O-])c1)C[C@@H]1[C@@H]2CC[C@]2(C)/C(=N/O)CC[C@@H]12 [CP-DM-3-105]", "measured.target": "Human airway smooth muscle (HASM) cells", "label": "label 1"}
{"compound": "CO/N=C1\\CC[C@H]2[C@@H]3C/C(=N\\OCc4cc(F)cc(F)c4)c4cc(O)c(OC)cc4[C@H]3CC[C@]12C [CP-DM-4-74]", "measured.target": "Human airway smooth muscle (HASM) cells", "label": "label 1"}
{"compound": "COc1cc2c(cc1O)/C(=N/OCc1ccccc1[N+](=O)[O-])C[C@@H]1[C@@H]2CC[C@]2(C)[C@@H](O)CC[C@@H]12 [CP-DM-3-124]", "measured.target": "Human airway smooth muscle (HASM) cells", "label": "label 1"}
{"compound": "COc1cc2c(cc1O)/C(=N/OCc1cccc(OC(F)(F)F)c1)C[C@@H]1[C@@H]2CC[C@]2(C)[C@@H](O)CC[C@@H]12 [CP-DM-4-63]", "measured.target": "Human airway smooth muscle (HASM) cells", "label": "label 1"}
{"compound": "COc1cc2c(cc1O)/C(=N/OCc1ccc(SC(F)(F)F)cc1)C[C@@H]1[C@@H]2CC[C@]2(C)/C(=N/O)CC[C@@H]12 [CP-DM-4-69]", "measured.target": "Human airway smooth muscle (HASM) cells", "label": "label 0"}
{"compound": "COc1cc2c(cc1O)C(=NOCc1ccc([N+](=O)[O-])cc1)C[C@@H]1[C@@H]2CC[C@]2(C)[C@@H](O)CC[C@@H]12 [CP-DM-2-11-7]", "measured.target": "Human airway smooth muscle (HASM) cells", "label": "label 1"}
{"compound": "C[C@]12CC[C@@H]3c4ccc(O)cc4CC[C@H]3[C@@H]1CC/C2=N\\OCc1cccc([N+](=O)[O-])c1 [CP-DM-3-102, estrone-17-(3-nitrobenzyl)oxime]", "measured.target": "Human airway smooth muscle (HASM) cells", "label": "label 1"}
{"compound": "COc1ccc(CO/N=C2\\C[C@@H]3[C@H](CC[C@]4(C)[C@@H](O)CC[C@@H]34)c3cc(OC)c(O)cc32)cc1 [CP-DM-4-5]", "measured.target": "Human airway smooth muscle (HASM) cells", "label": "label 1"}
{"compound": "COc1cc2c(cc1O)/C(=N/OCc1ccc(OC(F)(F)F)cc1)C[C@@H]1[C@@H]2CC[C@]2(C)[C@@H](O)CC[C@@H]12 [CP-DM-4-64]", "measured.target": "Human airway smooth muscle (HASM) cells", "label": "label 0"}
{"compound": "COc1cc2c(cc1O)/C(=N/OCc1cccc([N+](=O)[O-])c1)C[C@@H]1[C@@H]2CC[C@]2(C)[C@@H](O)CC[C@@H]12 [CP-DM-3-106]", "measured.target": "Human airway smooth muscle (HASM) cells", "label": "label 1"}
{"compound": "COc1cc2c(cc1O)/C(=N/OCc1cccc(C#N)c1)C[C@@H]1[C@@H]2CC[C@]2(C)/C(=N/O)CC[C@@H]12 [CP-DM-4-51]", "measured.target": "Human airway smooth muscle (HASM) cells", "label": "label 1"}
